Assay: In vivo pharmacokinetic evaluation
Conditions: blood, iv, 2 mg/kg, 2 mg/kg (iv); read-out: Cmax
property_label: Cmax (ng/mL)
# output: bare number, implied unit ng/mL

The molecule identified as NC(=O)c1cccc(-c2cnc3[nH]cc(-c4ccoc4)c3c2)c1 [Compound 12] registered its Cmax at 648

====

property_label: IC50

Param item: NC(=O)c1cccc(-c2cnc3[nH]cc(-c4ccoc4)c3c2)c1 ; param system: CYP 2D6 (Homo sapiens, UniProt P10635); output IC50: > 50 µM

====

Target: UniProt:P49336
Sequence (P49336 whole entry): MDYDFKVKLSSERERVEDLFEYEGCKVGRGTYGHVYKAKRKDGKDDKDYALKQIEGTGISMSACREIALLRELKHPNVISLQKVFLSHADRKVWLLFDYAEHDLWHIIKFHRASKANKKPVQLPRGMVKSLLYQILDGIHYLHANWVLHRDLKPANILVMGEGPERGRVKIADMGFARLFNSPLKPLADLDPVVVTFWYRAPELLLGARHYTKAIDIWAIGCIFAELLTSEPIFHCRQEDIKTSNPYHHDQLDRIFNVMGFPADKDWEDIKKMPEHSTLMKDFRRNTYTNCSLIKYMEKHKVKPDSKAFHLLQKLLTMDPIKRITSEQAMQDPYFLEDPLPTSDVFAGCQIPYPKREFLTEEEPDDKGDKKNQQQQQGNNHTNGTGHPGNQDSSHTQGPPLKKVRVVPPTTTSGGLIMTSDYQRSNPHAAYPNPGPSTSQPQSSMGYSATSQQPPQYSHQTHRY
Sequence (P24863 whole entry partner): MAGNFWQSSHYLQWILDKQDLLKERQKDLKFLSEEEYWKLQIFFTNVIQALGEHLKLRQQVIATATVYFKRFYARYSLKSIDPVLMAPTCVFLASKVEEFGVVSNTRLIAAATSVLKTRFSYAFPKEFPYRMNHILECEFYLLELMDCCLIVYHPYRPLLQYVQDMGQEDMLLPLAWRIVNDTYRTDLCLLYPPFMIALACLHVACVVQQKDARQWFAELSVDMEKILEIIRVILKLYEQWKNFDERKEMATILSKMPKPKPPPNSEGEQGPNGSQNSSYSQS
Assay: CDK8 enzyme activity assay (ADP-Glo Kinase Assay)
Type: biochemical
Details: CDK8, 200 nM; means ± SD, two experiments; read-out: Inhibition rate @ 200 nM (%)
Everything with inhibition at 0.2 µM lower than 30% is No; everything else, including exactly 30%, is Yes.

Data request: Determine whether this compound has inhibition at 0.2 µM no lower than 30%: NC(=O)c1cccc(-c2cnc3[nH]cc(-c4ccc(O)cc4)c3c2)c1
Data returned: No

Data request: Hi team, for NC(=O)c1cccc(-c2cnc3[nH]cc(-c4ccc(Cl)cc4)c3c2)c1 , is the recorded inhibition at 0.2 µM at or above 30%?
Data returned: Yes

Data request: Quick check, inhibition at 0.2 µM >= 30%? NC(=O)c1cccc(-c2cnc3[nH]cc(-c4cccc(C(F)(F)F)c4)c3c2)c1
Data returned: Yes

Data request: Entry NC(=O)c1cccc(-c2cnc3[nH]cc(Cl)c3c2)c1 : is its inhibition at 0.2 µM no less than 30%?
Data returned: Yes

Data request: // inclusive: inhibition at 0.2 µM at least 30%? input: NC(=O)c1cccc(-c2cnc(N)c3ccccc23)c1
Data returned: Yes

Data request: Is it the case that NC(=O)c1cccc(-c2cnc3[nH]cc(-c4ccccc4OC(F)(F)F)c3c2)c1 has inhibition at 0.2 µM reaching or exceeding 30%?
Data returned: No

Data request: Could you verify whether the entry NC(=O)c1cccc(-c2cnc3[nH]cc(-c4cnn(C(F)F)c4)c3c2)c1 shows inhibition at 0.2 µM of no less than 30%?
Data returned: Yes

Data request: Decide: inhibition at 0.2 µM of NC(=O)c1cccc(-c2cnc3[nH]cc(-c4ccc(OC(F)(F)F)cc4)c3c2)c1 >= 30%?
Data returned: Yes

Data request: Form field: inhibition at 0.2 µM at least 30%? Entry: COc1ccc(-c2c[nH]c3ncc(-c4cccc(C(N)=O)c4)cc23)cc1
Data returned: No

Data request: Could you verify whether the entry NC(=O)c1cccc(-c2ccc(N)nc2)c1 shows inhibition at 0.2 µM of no less than 30%?
Data returned: Yes

Data request: # bool: inhibition at 0.2 µM of NC(=O)c1cccc(-c2cnc3[nH]cc(-c4ccsc4)c3c2)c1 >= 30%
Data returned: Yes
